# target_of_assay: 5-HT2C receptor (Homo sapiens)
# Construct: expressed in transfected cells; host or cells: HEK-293 cells
# Sequence (P28335 33-458): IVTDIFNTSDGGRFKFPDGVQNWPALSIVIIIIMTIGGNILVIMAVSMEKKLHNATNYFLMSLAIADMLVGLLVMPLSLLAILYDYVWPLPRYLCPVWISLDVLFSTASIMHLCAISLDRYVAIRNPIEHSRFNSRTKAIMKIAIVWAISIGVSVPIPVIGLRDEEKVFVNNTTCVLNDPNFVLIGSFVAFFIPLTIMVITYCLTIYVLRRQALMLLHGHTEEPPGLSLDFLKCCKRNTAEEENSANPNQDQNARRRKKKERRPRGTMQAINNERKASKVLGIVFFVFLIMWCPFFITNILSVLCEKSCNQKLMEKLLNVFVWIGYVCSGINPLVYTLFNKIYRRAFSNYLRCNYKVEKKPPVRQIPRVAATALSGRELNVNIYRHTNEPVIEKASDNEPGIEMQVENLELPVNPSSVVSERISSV
# protocol_text: Radioligand binding assay, serotoninergic 5-HT2C receptors
# run_parameters: test compound 1×10^−6 M
Entry flag: YES if 5-HT2C [%] reaches 50%; NO if it does not.

[[record]]
compound = "O=S(=O)(NC1CN(CCOc2cccc3c2OCCO3)C1)c1cccc(F)c1 [Compound 89]"
answer_label = "YES"

[[record]]
compound = "O=S(=O)(NC1CN(CCOc2cccc3c2OCCO3)C1)c1cccc2ccccc12 [Compound 94]"
answer_label = "YES"

[[record]]
compound = "O=S(=O)(NC1CN(CCOc2cccc3c2OCCO3)C1)c1ccc(Cl)cc1 [Compound 92]"
answer_label = "YES"

[[record]]
compound = "O=S(=O)(NC1CCN(CCOc2cccc3[nH]ccc23)CC1)c1ccccc1 [Compound 55]"
answer_label = "NO"

[[record]]
compound = "CC1(C)Cc2cccc(OCCN3CCC(NS(=O)(=O)c4ccc5ccccc5c4)CC3)c2O1 [Compound 110]"
answer_label = "YES"

